- System: over 50 of the panel of 72 non-kinase targets (Table B14)
- method-notes: Extended panel screen against non-kinase targets (LeadProfilingScreen and CYP450 assays)
- Assay type: binding
- conditions: read-out: percent inhibition for over 50 of the non-kinase targets tested
- Experimental: Compound no. The experiments were performed by Ricerca Biosciences (Painesville, Ohio) using the LeadProfilingScreen and CYP450 assays. Compound no. 8b was screened at a concentration of 1 μM. No significant hits were identified.
assay-endpoint: inhibition at 1 µM

Q: Suppose we examine the compound CC(C)c1cc(Nc2nc(N3CCCC3C(=O)Nc3ccc(F)nc3)nc3c2CCC3)n[nH]1 (single isomer, unassigned) ; what inhibition at 1 µM value has been reported?
Ans: < 10%

---

- system-name: IGF1R (Homo sapiens, UniProt P08069)
- Sequence (P08069 31-1367): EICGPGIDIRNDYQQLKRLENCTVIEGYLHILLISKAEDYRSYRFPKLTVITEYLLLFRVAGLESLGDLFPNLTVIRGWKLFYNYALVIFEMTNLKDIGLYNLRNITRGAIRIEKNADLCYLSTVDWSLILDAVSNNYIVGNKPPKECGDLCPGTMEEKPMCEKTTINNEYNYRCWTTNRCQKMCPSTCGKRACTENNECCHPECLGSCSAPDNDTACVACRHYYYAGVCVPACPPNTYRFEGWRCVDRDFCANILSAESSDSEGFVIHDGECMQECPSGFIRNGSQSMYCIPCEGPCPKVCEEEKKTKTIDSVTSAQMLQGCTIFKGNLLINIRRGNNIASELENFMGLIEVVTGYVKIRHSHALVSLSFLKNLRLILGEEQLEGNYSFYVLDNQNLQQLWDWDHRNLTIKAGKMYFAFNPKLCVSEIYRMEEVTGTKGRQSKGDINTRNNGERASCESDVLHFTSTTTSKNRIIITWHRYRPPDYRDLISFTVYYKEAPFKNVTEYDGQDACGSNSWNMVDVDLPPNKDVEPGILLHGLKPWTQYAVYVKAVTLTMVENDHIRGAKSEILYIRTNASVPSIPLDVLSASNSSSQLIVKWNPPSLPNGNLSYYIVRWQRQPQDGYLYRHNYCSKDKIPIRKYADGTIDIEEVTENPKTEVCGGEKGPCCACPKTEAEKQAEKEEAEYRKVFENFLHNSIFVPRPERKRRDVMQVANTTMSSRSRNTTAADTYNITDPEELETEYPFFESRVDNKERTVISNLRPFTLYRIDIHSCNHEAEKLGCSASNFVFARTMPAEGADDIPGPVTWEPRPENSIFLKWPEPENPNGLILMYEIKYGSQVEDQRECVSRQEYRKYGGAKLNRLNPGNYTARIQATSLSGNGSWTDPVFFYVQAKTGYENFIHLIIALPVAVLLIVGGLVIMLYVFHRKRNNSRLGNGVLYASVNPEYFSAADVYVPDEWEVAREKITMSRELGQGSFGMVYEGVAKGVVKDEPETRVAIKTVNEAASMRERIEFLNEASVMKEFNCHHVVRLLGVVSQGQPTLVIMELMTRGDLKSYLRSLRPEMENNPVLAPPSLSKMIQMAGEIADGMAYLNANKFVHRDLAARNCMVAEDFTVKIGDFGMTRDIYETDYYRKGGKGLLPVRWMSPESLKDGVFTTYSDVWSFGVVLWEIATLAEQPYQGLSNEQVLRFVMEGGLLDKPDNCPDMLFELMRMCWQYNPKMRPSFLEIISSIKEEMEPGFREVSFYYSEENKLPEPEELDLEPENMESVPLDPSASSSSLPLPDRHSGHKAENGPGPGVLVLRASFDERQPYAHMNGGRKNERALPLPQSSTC
- method-notes: In vitro IGF-1R enzymatic assay (ADP-Glo kinase assay)
- Type: biochemical
- Parameters: purchased Millipore 14-802
- conditions: activated IGF-1R, 30 nM, replicate N2; read-out: % Inh @ 30 nM (N2)
// label = label 1 if inhibition at 0.03 µM is not less than 20%, otherwise label 0

Examples from the recorded data:
molecule | system-name | category
O=C(Nc1ccc(F)nc1)C1CCCCN1c1nc2c(c(Nc3cc(C4CC4)[nH]n3)n1)CCC2 (single isomer, unassigned) [Compound 9b] | IGF1R (Homo sapiens, UniProt P08069) | label 0
O=C(Nc1ccc(F)nc1)C1CCCN1c1nc2c(c(Nc3cc(C4CC4)[nH]n3)n1)CCCC2 (single isomer, unassigned) [Compound 14b] | IGF1R (Homo sapiens, UniProt P08069) | label 1
O=C(Nc1ccc(F)nc1)C1CCCCN1c1nc2c(c(Nc3cc(C4CCCC4)[nH]n3)n1)CCC2 (single isomer, unassigned) [Compound 17a] | IGF1R (Homo sapiens, UniProt P08069) | label 1

Here is another molecule to look at.
Q: // inclusive: inhibition at 0.03 µM at least 20%? input: O=C(Nc1ccc(F)nc1)C1C(O)CCN1c1nc2c(c(Nc3cc(C4CC4)[nH]n3)n1)CCC2 (single isomer, unassigned) [Compound 11a]
Ans: label 0

---

// values below are reported pIC50
- system-name: IGF1R (Homo sapiens, UniProt P08069)
- method-notes: In vitro IGF-1R enzymatic assay (ADP-Glo kinase assay)
- Format: biochemical
- Parameters: purchased Millipore 14-802
- conditions: activated IGF-1R; read-out: IC50
Remember, pIC50 is on a log scale: it is -log10 of the molar concentration.

compound | pIC50
O=C(Nc1ccc(F)nc1)C1CCCN1c1nc2c(c(Nc3cc(C4CC4)[nH]n3)n1)CCC2 (single isomer, unassigned) | 8.21
O=C(Nc1cnccn1)C1CCCN1c1nc2c(c(Nc3cc(C4CC4)[nH]n3)n1)CCC2 (single isomer, unassigned) | 8.19

Q: Suppose we examine the compound CC(C)c1cc(Nc2nc(N3CCCC3C(=O)Nc3ccc(F)nc3)nc3c2CCC3)n[nH]1 (single isomer, unassigned) ; what pIC50 value has been reported?
Ans: 8.29

---

- Tested on: MDA MB 231
- method-notes: Cell Titer-Glo cell viability: MDA MB 231
- Format: cell-based
- conditions: Homo sapiens, MDAMB231, breast cancer, 72 h incubation, Cell Titer-Glo
- From the text: Compound nos. […] This panel of cell lines includes an ER− breast carcinoma, primary breast ductal carcinoma, prostate adenocarcinoma, mammary adenocarcinoma, mammary ductal carcinoma, mammary ductal carcinoma, ovary adenocarcinoma, ER+ breast carcinoma, ER-HER2+ mammary ductal carcinoma and an ER+ mammary ductal carcinoma, respectively. This assay quantitates the ATP present in order to determine the number of viable cells in culture. […]
assay-endpoint: IC50 (µM)
Write the answer as a number in µM, unit excluded.

compound | assay-endpoint | readout-units | test-value
O=C(Nc1ccc(F)nc1)C1CCCN1c1nc2c(c(Nc3cc(C4CC4)[nH]n3)n1)CCC2 (single isomer, unassigned) [Compound 2b] | IC50 | µM | 1

Q: Suppose we examine the compound O=C(Nc1ccc(F)nc1)C1CC(O)CN1c1nc2c(c(Nc3cc(C4CC4)[nH]n3)n1)CCC2 (single isomer, unassigned) [Compound 10a] ; what IC50 value has been reported?
Ans: 10

---

- Test system: COLO 205
- method-notes: Cell Titer-Glo cell viability: COLO 205
- Format: cell-based
- conditions: Homo sapiens; COLO-205, colon adenocarcinoma; 72 h
pIC50: −log10 of the molar value.
assay-endpoint: pIC50

Q: Lookup: pIC50 / COLO 205 / C[C@@]1(C(=O)Nc2ccc(F)nc2)CCCN1c1nc(Nc2cc(C3CC3)n[nH]2)c2cccn2n1 [BMS-754807, reference compound]
Ans: > 6.00

---

- system-name: IGF1R (Homo sapiens)
- method-notes: In vitro IGF-1R enzymatic assay (ADP-Glo kinase assay)
- Assay type: biochemical
- Parameters: purchased Millipore 14-802
- conditions: IGF-1R, ATP 100 μM, run N2; read-out: IC50 (M) N2
// values below are reported IC50
Write the answer as a number in M, unit excluded.

compound | IC50, M
O=C(Nc1ccc(F)nc1)C1CCCN1c1nc2c(c(Nc3cc(C4CC4)[nH]n3)n1)CCC2 (single isomer, unassigned) | 5.29e-09

API: the following record is the query input.
Q: Suppose we examine the compound CC(C)c1cc(Nc2nc(N3CCCC3C(=O)Nc3ccc(F)nc3)nc3c2CCC3)n[nH]1 (single isomer, unassigned) ; what IC50 value has been reported?
Ans: 5.49e-09

---

- Test system: Akt phosphorylation induced by IGF-1R in HT-29 cells
- method-notes: Western blot analysis of Akt phosphorylation induced by IGF-1R
- Assay type: cell-based, Human
- conditions: 1 nM compound 2 h, then IGF-1 10 ng/mL 10 min; HT-29
// values below are reported phosphorylated AKT levels normalized to actin levels (pAKT/actin)
Please give the numeric answer without any surrounding text.

Below, each entry is followed by its recorded phosphorylated AKT levels normalized to actin levels (pAKT/actin) result.
compound | test-value
O=C(Nc1ccc(F)nc1)C1CCCN1c1nc2c(c(Nc3cc(C4CC4)[nH]n3)n1)CCC2 (single isomer, unassigned) [Compound 2b] | 0.80
O=C(Nc1ccc(F)nc1)C1CCN1c1nc2c(c(Nc3cc(C4CC4)[nH]n3)n1)CCC2 (racemic) | 0.61
CC(C)c1cc(Nc2nc(N3CCCCC3C(=O)Nc3ccc(F)nc3)nc3c2CCC3)n[nH]1 (single isomer, unassigned) [Compound 16a] | 0.62

Q: Lookup: phosphorylated AKT levels normalized to actin levels (pAKT/actin) / Akt phosphorylation induced by IGF-1R in HT-29 cells / O=C(Nc1ccc(F)nc1)C1CCCN1c1nc2c(c(Nc3cc(C4CC4)[nH]n3)n1)CCCC2 (single isomer, unassigned) [Compound 14a]
Ans: 0.51

Q: Lookup: phosphorylated AKT levels normalized to actin levels (pAKT/actin) / Akt phosphorylation induced by IGF-1R in HT-29 cells / O=C(Nc1ccc(F)nc1)C1CCCCN1c1nc2c(c(Nc3cc(C4CC4)[nH]n3)n1)CCC2 (racemic)
Ans: 0.71

Q: Lookup: phosphorylated AKT levels normalized to actin levels (pAKT/actin) / Akt phosphorylation induced by IGF-1R in HT-29 cells / O=C(Nc1ccc(F)nc1)C1CC(O)CN1c1nc2c(c(Nc3cc(C4CC4)[nH]n3)n1)CCC2 (single isomer, unassigned) [Compound 10a]
Ans: 0.54

Q: Lookup: phosphorylated AKT levels normalized to actin levels (pAKT/actin) / Akt phosphorylation induced by IGF-1R in HT-29 cells / O=C(Nc1cnccn1)C1CCCN1c1nc2c(c(Nc3cc(C4CC4)[nH]n3)n1)CCC2 (racemic) [Compound 6]
Ans: 0.22

---

- Tested on: LNCaP
- method-notes: Cell Titer-Glo cell viability: LNCaP
- Type: cell-based
- conditions: Homo sapiens, Prostate cancer, 72 h incubation, Cell Titer-Glo
assay-endpoint: pIC50
Remember, pIC50 is on a log scale: it is -log10 of the molar concentration.

molecule | assay-endpoint | test-value
O=C(Nc1cnccn1)C1CCCN1c1nc2c(c(Nc3cc(C4CC4)[nH]n3)n1)CCC2 (single isomer, unassigned) | pIC50 | 7.00

API: the following record is the query input.
Q: Suppose we examine the molecule O=C(Nc1ccc(F)nc1)C1CCN1c1nc2c(c(Nc3cc(C4CC4)[nH]n3)n1)CCC2 (racemic) ; what pIC50 value has been reported?
Ans: 7.00

---

// values below are reported inhibition at 0.03 µM
- system-name: IGF1R (Homo sapiens, UniProt P08069)
- method-notes: In vitro IGF-1R enzymatic assay (ADP-Glo kinase assay)
- Type: biochemical
- Design: purchased Millipore 14-802
- conditions: activated IGF-1R, 30 nM, replicate N1; read-out: % Inh @ 30 nM (N1)
Write the answer as a number in %, unit excluded.

Below, each entry is followed by its recorded inhibition at 0.03 µM result.
compound | system-name | readout-units | inhibition at 0.03 µM
O=C(Nc1ccc(F)nc1)C1CCCN1c1nc2c(c(Nc3cc(C4CC4)[nH]n3)n1)CCCC2 (single isomer, unassigned) [Compound 14b] | IGF1R (Homo sapiens, UniProt P08069) | % | 77
CC(C)c1cc(Nc2nc(N3CCCCC3C(=O)Nc3ccc(F)nc3)nc3c2CCC3)n[nH]1 (single isomer, unassigned) [Compound 16a] | IGF1R (Homo sapiens, UniProt P08069) | % | 27
O=C(Nc1ccc(F)nc1)C1CCCN1c1nc2c(c(Nc3cc(C4CCCC4)[nH]n3)n1)CCCC2 (single isomer, unassigned) [Compound 15a] | IGF1R (Homo sapiens, UniProt P08069) | % | 17
O=C(Nc1ccc(F)nc1)C1CCCCN1c1nc2c(c(Nc3cc(C4CCCC4)[nH]n3)n1)CCC2 (single isomer, unassigned) [Compound 17a] | IGF1R (Homo sapiens, UniProt P08069) | % | 12
O=C(Nc1ccc(F)nc1)C1C(O)CCN1c1nc2c(c(Nc3cc(C4CC4)[nH]n3)n1)CCC2 (single isomer, unassigned) [Compound 11a] | IGF1R (Homo sapiens, UniProt P08069) | % | 17
CC(C)c1cc(Nc2nc(N3CCCC3C(=O)Nc3ccc(F)nc3)nc3c2CCC3)on1 (single isomer, unassigned) [Compound 12a] | IGF1R (Homo sapiens, UniProt P08069) | % | 19

API: the following record is the query input.
Q: Suppose we examine the compound O=C(Nc1ccc(F)nc1)C1CCCCN1c1nc2c(c(Nc3cc(C4CC4)[nH]n3)n1)CCC2 (single isomer, unassigned) [Compound 9b] ; what inhibition at 0.03 µM value has been reported?
Ans: 14
